tested-target: hERG (KCNH2) (Homo sapiens)
Sequence (Q12809 whole entry): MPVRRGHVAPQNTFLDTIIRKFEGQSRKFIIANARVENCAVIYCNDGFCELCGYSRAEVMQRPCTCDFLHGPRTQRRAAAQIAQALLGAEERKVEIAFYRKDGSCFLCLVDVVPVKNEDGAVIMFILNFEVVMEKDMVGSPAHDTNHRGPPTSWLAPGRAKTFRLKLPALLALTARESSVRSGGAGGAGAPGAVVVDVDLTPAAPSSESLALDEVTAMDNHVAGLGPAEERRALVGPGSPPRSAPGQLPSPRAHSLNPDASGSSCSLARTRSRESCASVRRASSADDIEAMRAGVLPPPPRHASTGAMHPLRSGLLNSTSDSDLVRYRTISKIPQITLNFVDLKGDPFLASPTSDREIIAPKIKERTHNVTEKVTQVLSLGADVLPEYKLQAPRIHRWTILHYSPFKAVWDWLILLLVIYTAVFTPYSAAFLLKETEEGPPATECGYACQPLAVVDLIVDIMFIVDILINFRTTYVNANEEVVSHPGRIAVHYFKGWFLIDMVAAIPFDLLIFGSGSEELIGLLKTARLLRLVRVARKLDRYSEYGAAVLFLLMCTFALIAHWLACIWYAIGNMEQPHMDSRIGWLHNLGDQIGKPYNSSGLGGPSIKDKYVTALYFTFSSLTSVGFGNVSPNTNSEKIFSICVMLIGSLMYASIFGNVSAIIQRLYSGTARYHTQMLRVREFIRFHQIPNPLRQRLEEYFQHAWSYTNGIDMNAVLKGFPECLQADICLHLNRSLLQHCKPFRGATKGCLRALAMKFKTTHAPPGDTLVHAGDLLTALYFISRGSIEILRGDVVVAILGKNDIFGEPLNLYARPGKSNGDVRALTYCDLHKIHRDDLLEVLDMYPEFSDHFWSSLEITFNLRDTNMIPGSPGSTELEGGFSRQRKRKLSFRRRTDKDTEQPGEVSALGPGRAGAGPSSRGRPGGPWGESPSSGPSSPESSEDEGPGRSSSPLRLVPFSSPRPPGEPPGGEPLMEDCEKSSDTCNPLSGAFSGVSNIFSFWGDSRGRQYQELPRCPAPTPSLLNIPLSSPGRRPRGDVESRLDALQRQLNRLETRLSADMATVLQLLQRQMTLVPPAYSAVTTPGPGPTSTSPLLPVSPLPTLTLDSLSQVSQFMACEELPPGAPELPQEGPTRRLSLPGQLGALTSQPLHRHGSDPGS
test-method-notes: Inhibition of human ERG expressed in CHO cells at 3 uM
condition-summary: CHO cells expressing human ERG
Below, each entry is listed with its recorded inhibition at 3 µM.
Number in %, nothing else.

>>> value("COC(=O)NCC(O)CN1[C@@H]2CC[C@H]1C[C@@H](NC(=O)c1cc3ccccc3n(C(C)C)c1=O)C2 (mixture of isomers)")
74
>>> value("CC(C)n1c(=O)c(C(=O)N[C@H]2C[C@H]3CC[C@@H](C2)N3CC(O)CNS(C)(=O)=O)cc2ccccc21 (mixture of isomers)")
10
>>> value("CC(C)n1c(=O)c(C(=O)N[C@H]2C[C@H]3CC[C@@H](C2)N3CC(O)CN(C)C(=O)N(C)C)cc2ccccc21 (mixture of isomers)")
64

Challenge: Query (molecule): CC(=O)N(C)CC(O)CN1[C@@H]2CC[C@H]1C[C@@H](NC(=O)c1cc3ccccc3n(C(C)C)c1=O)C2 (mixture of isomers) ; field requested: inhibition at 3 µM
Response given: 11

Challenge: And then COC(=O)N(C)CC(O)CN1[C@@H]2CC[C@H]1C[C@@H](NC(=O)c1cc3ccccc3n(C(C)C)c1=O)C2 (mixture of isomers) , what is it?
Response given: 40

* * *

tested-target: 5-hydroxytryptamine receptor 4 (Homo sapiens)
Sequence (Q13639 whole entry): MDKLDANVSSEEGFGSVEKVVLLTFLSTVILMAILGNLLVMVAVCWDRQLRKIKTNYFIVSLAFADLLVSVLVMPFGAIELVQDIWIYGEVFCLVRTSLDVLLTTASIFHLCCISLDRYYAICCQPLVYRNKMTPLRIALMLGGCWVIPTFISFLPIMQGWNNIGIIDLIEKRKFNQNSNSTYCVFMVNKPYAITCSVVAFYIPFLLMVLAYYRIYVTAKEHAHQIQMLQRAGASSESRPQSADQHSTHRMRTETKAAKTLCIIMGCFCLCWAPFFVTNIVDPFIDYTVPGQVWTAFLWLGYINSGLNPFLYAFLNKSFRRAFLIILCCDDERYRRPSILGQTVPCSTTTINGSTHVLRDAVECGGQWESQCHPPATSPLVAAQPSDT
test-method-notes: Agonist activity at human recombinant 5HT4c receptor expressed in HEK293 cells at 10-fold physiological level assessed as accumulation of cAMP relative to 5HT
Type: functional, cell-based
quantity-name: Intrinsic activity (%)
Field: numeric (%). Do not append units.

>>> value("CC(C)n1c(=O)c(C(=O)N[C@H]2C[C@H]3CC[C@@H](C2)N3CC(O)CN(C)S(C)(=O)=O)cc2ccccc21 (mixture of isomers)")
96
>>> value("CC(C)n1c(=O)c(C(=O)N[C@H]2C[C@H]3CC[C@@H](C2)N3C[C@@H](O)CN2CCN(S(C)(=O)=O)CC2)cc2ccccc21")
114
>>> value("CC(C)n1c(=O)c(C(=O)N[C@H]2C[C@H]3CC[C@@H](C2)N3CC(O)CN(C)C(N)=O)cc2ccccc21 (mixture of isomers)")
95
>>> value("CC(=O)N(C)CC(O)CN1[C@@H]2CC[C@H]1C[C@@H](NC(=O)c1cc3ccccc3n(C(C)C)c1=O)C2 (mixture of isomers)")
95
>>> value("CC(C)n1c(=O)c(C(=O)N[C@H]2C[C@H]3CC[C@@H](C2)N3CC(O)CN(C)C(=O)N(C)C)cc2ccccc21 (mixture of isomers)")
87

Challenge: Intrinsic activity lookup needed for COC(=O)N(C)CC(O)CN1[C@@H]2CC[C@H]1C[C@@H](NC(=O)c1cc3ccccc3n(C(C)C)c1=O)C2 (mixture of isomers) , thanks.
Response given: 84

Challenge: Continue with CC(C)n1c(=O)c(C(=O)N[C@H]2C[C@H]3CC[C@@H](C2)N3C[C@H](O)CN(C)S(C)(=O)=O)cc2ccccc21
Response given: 97

Challenge: Also, CNC(=O)NCC(O)CN1[C@@H]2CC[C@H]1C[C@@H](NC(=O)c1cc3ccccc3n(C(C)C)c1=O)C2 (mixture of isomers) please.
Response given: 82

* * *

test-method-notes: in vivo
condition-summary: Sprague-Dawley, rat, po, 5 mg/kg
quantity-name: Cmax (ng/mL)
Response body: numeric value in ng/mL, unit text excluded.

Challenge: Consider the molecule shown here: CC(C)n1c(=O)c(C(=O)N[C@H]2C[C@H]3CC[C@@H](C2)N3C[C@@H](O)CN(C)S(C)(=O)=O)cc2ccccc21 What is its recorded Cmax?
Response given: 160
